- Test system: OVCAR-3
- method: NCI tumour cell line growth inhibition, 48 h
Active and inactive are the calls of the source. Cut-off read from the data, not from the text of the source: active = GI50 up to about 1.1 µM and inactive = higher.
Valid outcomes are listed here; reply with one: Yes = active, No = inactive

Consider the following illustrative entries.
[[record]]
molecule = "COc1cc(C2c3cc4c(cc3OC(NNC(N)=O)C2C)OCO4)cc(OC)c1O (stereo not given)"
assigned_category = "Yes"

[[record]]
molecule = "CC(=O)c1c(-c2ccco2)c(C#N)c(=S)n(C2OC(CO)C(O)C(O)C2O)c1C (stereo not given)"
assigned_category = "No"

[[record]]
molecule = "Cc1cccc(/C=C2\\CCCCCC2=O)c1"
assigned_category = "No"


Per the assay record, what outcome was assigned to COC(=O)C1Cc2c(n(Cc3ccccc3)c3ccccc23)C(CCC(=O)O)N1C(C)C (stereo not given) ?
No

Per the assay record, what outcome was assigned to COc1cc(/C=C2\[C@H]3c4c(c(OC)c(C)c(OC)c4OC)CC(C(=O)N2Cc2ccccc2)N3C)c(OC)c(C)c1OC ?
No

Per the assay record, what outcome was assigned to COc1cc2nc(Sc3c([N+](=O)[O-])ncn3C)[nH]c2cc1OC ?
No

Per the assay record, what outcome was assigned to O=[N+]([O-])c1ccc2[nH]nc(OCc3ccccc3Cl)c2c1 ?
No

----------
- Tested on: SF-539
- method: NCI tumour cell line growth inhibition, 48 h
Activity calls are given as the source filed them. No stated cut-off is given here; in the data, active = GI50 up to about 1.1 µM and inactive = higher.
Valid outcomes are listed here; reply with one: T for active, F for inactive

[[record]]
compound = "CC(C)C(/C=C/c1ccc(Cl)cc1)=N\\NC(=S)NN"
assigned_category = "F"

[[record]]
compound = "COc1cc(/C=C2\\[C@H]3c4c(c(OC)c(C)c(OC)c4OC)CC(C(=O)N2Cc2ccccc2)N3C)c(OC)c(C)c1OC"
assigned_category = "F"

[[record]]
compound = "C[C@H]1C[C@H]2[C@@H]3C(C)(C)O[C@]4(O)C(=O)[C@]5(O)[C@@H](C)CC[C@H]1[C@]25C(=O)[C@]34C"
assigned_category = "F"

[[record]]
compound = "CC[C@]12C=CCN3CCC4(c5cc([C@@]6(C(=O)OC)CC7CN(CCc8c6[nH]c6ccccc86)C[C@@H]6CCC[C@H]76)c(OC)cc5N(C)C4[C@](O)(C(=O)OC)C1OC(C)=O)C32 (stereo partly drawn)"
assigned_category = "T"

[[record]]
compound = "COc1cc(C2C(Cl)C(=O)N2NC(=O)c2ccccc2O)ccc1O (stereo not drawn)"
assigned_category = "F"


Per the assay record, what outcome was assigned to O=C1Nc2cc([N+](=O)[O-])c(Br)cc2C1=O ?
F

Per the assay record, what outcome was assigned to CC(=O)C(C(c1ccccc1)N1CCOCC1)N1CCOCC1 (stereo not drawn) ?
F

Per the assay record, what outcome was assigned to CCCc1cn2c(/C=N/NC(=N)N)c(-c3ccc([N+](=O)[O-])cc3)nc2s1 ?
F

----------
Listed next: entries and their corresponding GI50.
- Tested on: Malme-3M
- method: NCI tumour cell line growth inhibition, 48 h
Active and inactive are the calls of the source. Cut-off read from the data, not from the text of the source: active = GI50 up to about 1.1 µM and inactive = higher.

Some compounds with known GI50 results, for comparison:
[[record]]
compound = "COC(=O)C1Cc2c(n(Cc3ccccc3)c3ccccc23)C(CCC(=O)O)N1C(C)C (stereo not given)"
result_type = "GI50"
value_measured = "> 100 µM (inactive)"

[[record]]
compound = "O=C(O)CCSCc1ccc(I)cc1"
result_type = "GI50"
value_measured = "> 100 µM (inactive)"

[[record]]
compound = "O=C(NCCCN(CCCCN(CCCNC(=O)c1cc(S(=O)(=O)O)cc(O)c1O)C(=O)c1cc(S(=O)(=O)O)cc(O)c1O)C(=O)c1cc(S(=O)(=O)O)cc(O)c1O)c1cc(S(=O)(=O)O)cc(O)c1O"
result_type = "GI50"
value_measured = "> 100 µM (inactive)"


Using the record for COc1ccc(/C(C)=N/OC(=O)c2c(-c3ccccc3Cl)noc2C)cc1CN1CCOCC1 , report its GI50.
21.2 µM (inactive)

Using the record for CCOC(OC1=CCCC1)C(C)[Se]c1ccccc1 (stereo not given) , report its GI50.
32.8 µM (inactive)

Using the record for N#C/C(=C\c1ccncc1)c1csc2ccccc12 , report its GI50.
32.7 µM (inactive)

Using the record for CN(C)/C=N\c1ccn(CCO)c(=O)n1 , report its GI50.
> 100 µM (inactive)

Using the record for COc1cc2nc(Sc3c([N+](=O)[O-])ncn3C)[nH]c2cc1OC , report its GI50.
56.2 µM (inactive)

Using the record for Clc1ccc(Cc2nc3cc(CCN4CCN(c5ccccc5)CC4)ccc3[nH]2)cc1 , report its GI50.
15.7 µM (inactive)

Using the record for C[C@@H](CC(O)C(O)C(C)(C)O)C1CCC23CC12CCC1[C@@]2(C)CCC(=O)C(C)(C)C2CC(OC2OC(CO)C(O)C(O)C2O)[C@]13C (stereo not given in full) , report its GI50.
> 10 µM (inactive)
